Study Target: human TYK2 (JH2domain-pseudokinase) (Homo sapiens (Human))
Protocol Summary: TYK2 JH2 Domain Binding Assay (KINOMEscan, DiscoveRx)
Stated Conditions: 11-point dilution, duplicate
What Kd was measured for each of the following?

| Compound | Kd |
| --- | --- |
| CC1(C)CCC(c2ccc(Nc3cc(NC(=O)C4CC4)nc4[nH]c(C(F)F)nc34)c(S(C)(=O)=O)c2)OC1 (centres unmarked) | 0.1 to 0.5 nM |
| Cc1nc2c(Nc3ccccc3S(C)(=O)=O)cc(NC(=O)C3CC3)nc2[nH]1 | 0.1 to 0.5 nM |
| Cc1nc2c(Nc3ccc(C4CC(C)(C)OC(C)(C)C4)cc3S(C)(=O)=O)cc(NC(=O)C3CC3)nc2[nH]1 | 1 to 10 nM |
| COc1cc(Nc2ccc(-c3ccn(C)n3)cc2S(C)(=O)=O)c2nc(C)[nH]c2n1 | > 10 nM |
| Cc1nc2c(Nc3ccc(C4CCOCC4)cc3N(C)S(C)(=O)=O)cc(NC(=O)C3CC3)nc2[nH]1 | 0.5 to 1 nM |
| Cc1cc(Nc2cc(Nc3ccc([C@@H]4CCCCO4)cc3S(C)(=O)=O)c3nc(C)[nH]c3n2)nc(C)n1 | < 0.1 nM |

Can you give me Kd for all of these, one by one?
1. CS(=O)(=O)c1ccccc1Nc1cc(Nc2ccc3c(n2)CCOC3)nc2[nH]c(C(F)F)nc12
2. Cc1nc2c(Nc3ccc(-c4ncc(C)s4)cc3S(C)(=O)=O)cc(NC(=O)C3CC3)nc2[nH]1

< 0.1 nM
0.1 to 0.5 nM

###

Study Target: human TYK2 (JH2domain-pseudokinase) (Homo sapiens (Human))
Protocol Summary: TYK2 JH2 Domain Binding Assay (KINOMEscan, DiscoveRx)
Stated Conditions: 11-point dilution, duplicate
pKd: −log10 of the molar value.
Outcome Measure: pKd

Worked set:
| Molecule | Outcome Measure | Result |
| --- | --- | --- |
| Cc1ncc(Nc2cc(Nc3ccc(C4CCCCO4)cc3S(C)(=O)=O)c3nc(C(F)F)[nH]c3n2)nc1C (stereo not shown) | pKd | 9.30 to 10.00 |
| CN=[S@](C)(=O)c1cc(-c2nc(COC)c(C)s2)ccc1Nc1cc(NC(=O)C2CC2)nc2[nH]c(C(F)F)nc12 | pKd | 9.30 to 10.00 |
| Cc1cc(Nc2cc(Nc3ccc(C4CC4)cc3S(C)(=O)=O)c3nc(C)[nH]c3n2)nc(C)n1 | pKd | 9.30 to 10.00 |

Okay, next one:
Specify pKd for Cc1nc2c(Nc3ccc(C4CCC(C)(C)CO4)cc3S(C)(=O)=O)cc(NC(=O)C3CC3)nc2[nH]1 (stereo not shown) and stop. > 10.00

###

Study Target: human TYK2 (JH2domain-pseudokinase) (Homo sapiens (Human), UniProt P29597)
Sequence (P29597 556-888): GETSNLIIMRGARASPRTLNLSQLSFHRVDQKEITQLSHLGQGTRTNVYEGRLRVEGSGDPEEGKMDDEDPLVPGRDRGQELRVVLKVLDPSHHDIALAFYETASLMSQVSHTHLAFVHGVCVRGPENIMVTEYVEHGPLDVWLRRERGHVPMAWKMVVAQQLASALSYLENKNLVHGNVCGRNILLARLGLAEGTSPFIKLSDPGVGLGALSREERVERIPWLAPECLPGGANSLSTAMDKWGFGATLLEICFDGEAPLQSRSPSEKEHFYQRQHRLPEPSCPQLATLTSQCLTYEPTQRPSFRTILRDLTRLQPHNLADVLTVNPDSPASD
Protocol Summary: TYK2 JH2 Domain Binding Assay (KINOMEscan, DiscoveRx)
Stated Conditions: 11-point dilution, duplicate
pKd: −log10 of the molar value.
Outcome Measure: pKd

Known pKd results, listed for orientation:
| Molecule | pKd |
| --- | --- |
| Cc1nc2c(Nc3ccc(C4=NC(C)(C)CO4)cc3S(C)(=O)=O)cc(NC(=O)[C@H]3C[C@H]3F)nc2[nH]1 | 8.00 to 9.00 |
| CS(=O)(=O)c1cc([C@H]2CCCO2)ccc1Nc1cc(NC(=O)[C@H]2CC2(F)F)nc2[nH]c(C(F)F)nc12 | 8.00 to 9.00 |
| Cc1nc2c(Nc3ccc(-c4c(C)nn(C)c4C)cc3S(C)(=O)=O)cc(Nc3cnc(C)c(C)n3)nc2[nH]1 | 9.30 to 10.00 |
| CS(=O)(=O)c1cc([C@H]2CCCOC2)ccc1Nc1cc(NC(=O)C2CC2(F)F)nc2[nH]c(C(F)F)nc12 (stereo partly shown) | 8.00 to 9.00 |
| CN=[S@](C)(=O)c1cc(-c2cnn(C)c2C)ccc1Nc1cc(NC(=O)C2CC2)nc2[nH]c(C(F)F)nc12 | 9.30 to 10.00 |

Record pKd for all entries; do not skip any.
1. Cc1nc2c(Nc3ccc(-c4nc(C)sc4C)cc3S(C)(=O)=O)cc(NC(=O)C3CC3)nc2[nH]1
2. COc1ccccc1Nc1cc(Nc2ccc(N3CCC4(CCOCC4)CC3)cn2)nc2[nH]c(C(F)F)nc12

> 10.00
< 8.00

###

I'd appreciate it if you could supply Kd values for the items below.
Study Target: human TYK2 (JH2domain-pseudokinase) (Homo sapiens (Human), UniProt P29597)
Protocol Summary: TYK2 JH2 Domain Binding Assay (KINOMEscan, DiscoveRx)
Stated Conditions: 11-point dilution, duplicate

# annotated cases, reported Kd shown
| Smiles Data | Result |
| --- | --- |
| Cc1ccc(Nc2cc(NC(=O)C3CC3)nc3[nH]c(C)nc23)c(N(C)S(C)(=O)=O)c1 | 0.5 to 1 nM |
| Cc1ncc(Nc2cc(Nc3ccc(-c4cc(C)n(C)n4)cc3S(C)(=O)=O)c3nc(C(F)F)[nH]c3n2)nc1C | 0.1 to 0.5 nM |
| CN(c1ccccc1Nc1cc(Nc2cccc(C#N)n2)nc2[nH]c(C(F)F)nc12)S(C)(=O)=O | < 0.1 nM |

API: the following record is the query input.
Please report Kd for the following molecule: "Cc1nc2c(Nc3ccccc3N(C)S(C)(=O)=O)cc(Nc3cccc(C(F)(F)F)n3)nc2[nH]1" 0.1 to 0.5 nM

###

Study Target: human TYK2 (JH2domain-pseudokinase) (Homo sapiens (Human), UniProt P29597)
Protocol Summary: TYK2 JH2 Domain Binding Assay (KINOMEscan, DiscoveRx)
Stated Conditions: 11-point dilution, duplicate
pKd: −log10 of the molar value.
Outcome Measure: pKd

| Molecule | pKd |
| --- | --- |
| Cc1nc2c(Nc3ccc(Cl)cc3S(C)(=O)=O)cc(Nc3cccc(C#N)n3)nc2[nH]1 [I-186] | 9.30 to 10.00 |

For each of the molecules below, note its pKd.
1. Cc1csc(-c2ccc(Nc3cc(Nc4cnc(C)c(C)n4)nc4[nH]c(C)nc34)c(S(C)(=O)=O)c2)n1 [I-464]
2. Cc1nc2c(Nc3ccc(-c4cn(C)cn4)cc3S(C)(=O)=O)cc(NC(=O)[C@H]3CC3(F)F)nc2[nH]1 [I-227]
3. C#Cc1cccc(Nc2cc(Nc3ccccc3S(C)(=O)=O)c3nc(C(F)F)[nH]c3n2)n1 [I-546]
4. Cc1nc2c(Nc3ccc(Cl)cc3S(C)(=O)=O)cc(NC(=O)[C@H]3C[C@H]3F)nc2[nH]1 [I-192]
5. Cc1nc2c(Nc3ccc(-c4ccn(C)n4)cc3S(C)(=O)=O)cc(NC(=O)[C@H]3CC3(F)F)nc2[nH]1 [I-240]
6. CC1(C)COC(c2ccc(Nc3cc(NC(=O)[C@@H]4C[C@@H]4F)nc4[nH]c(C(F)F)nc34)c(S(C)(=O)=O)c2)=N1 [I-428]
7. Cc1nc(-c2ccc(Nc3cc(Nc4cnc(C)c(C)n4)nc4[nH]c(C(F)F)nc34)c(S(C)(=O)=O)c2)c(C)s1 [I-580]
8. CS(=O)(=O)c1cc([C@H]2CCCO2)ccc1Nc1cc(NC(=O)C2CC2)nc2[nH]c(C(F)F)nc12 [I-425]

1. 9.00 to 9.30
2. 9.30 to 10.00
3. 8.00 to 9.00
4. 8.00 to 9.00
5. 8.00 to 9.00
6. 8.00 to 9.00
7. 9.30 to 10.00
8. 9.30 to 10.00

Required: pKd, one value per molecule below.
1. Cc1cc(-c2ccc(Nc3cc(Nc4cccc(C(F)(F)F)n4)nc4[nH]c(C(F)F)nc34)c(S(C)(=O)=O)c2)nn1C [I-290]
2. COc1c(Nc2cc(Nc3cc4c(nn3)CCC4)nc3[nH]c(C(F)F)nc23)cccc1-c1ncnn1C [I-647]

1. 9.00 to 9.30
2. 9.00 to 9.30

Hi! Can you tell me pKd for each of these molecules?
1. COc1c(F)cccc1Nc1cc(NC(=O)C2CC2)nc2[nH]c(C(F)F)nc12 [I-20]
2. Cc1nc2c(Nc3ccc(-c4cc(C)n(C)n4)cc3S(C)(=O)=O)cc(Nc3cccc(C#N)n3)nc2[nH]1 [I-583]
3. COc1c(Nc2cc(Nc3cnc(C(C)(C)OC)c(C)n3)nc3[nH]c(C)nc23)cccc1-c1nnn(C)n1 [I-138]
4. Cc1cnc(-c2ccc(Nc3cc(Nc4cccc(C#N)n4)nc4[nH]c(C(F)F)nc34)c(S(C)(=O)=O)c2)s1 [I-513]

1. < 8.00
2. 9.30 to 10.00
3. 8.00 to 9.00
4. 9.00 to 9.30

###

Give Kd for every item shown.
Study Target: human TYK2 (JH2domain-pseudokinase) (Homo sapiens (Human), UniProt P29597)
Protocol Summary: TYK2 JH2 Domain Binding Assay (KINOMEscan, DiscoveRx)
Stated Conditions: 11-point dilution, duplicate

| Compound | Study Target | Kd |
| --- | --- | --- |
| Cn1ccc(-c2ccc(Nc3cc(NC(=O)[C@@H]4C[C@@H]4F)nc4[nH]c(C(F)F)nc34)c(S(C)(=O)=O)c2)n1 [I-210] | human TYK2 (JH2domain-pseudokinase) (Homo sapiens (Human), UniProt P29597) | 0.1 to 0.5 nM |
| CN(c1cc(-c2cncn2C)ccc1Nc1cc(NC(=O)C2CC2(F)F)nc2[nH]c(C(F)F)nc12)S(C)(=O)=O (stereo not drawn) [I-380] | human TYK2 (JH2domain-pseudokinase) (Homo sapiens (Human), UniProt P29597) | 0.5 to 1 nM |

Hi! Can you tell me Kd for each of these compounds?
1. Cc1nc2c(Nc3ccc(C4CCCCO4)cc3S(C)(=O)=O)cc(Nc3cc4n(n3)CCOC4)nc2[nH]1 (stereo in doubt) [I-586]
2. Cc1nc(-c2ccc(Nc3cc(NC(=O)C4CC4)nc4[nH]c(C(F)F)nc34)c(S(C)(=O)=O)c2)sc1C [I-415]
3. COc1cc(-c2nn(C)cc2C)ccc1Nc1cc(NC(=O)C2CC2)nc2[nH]c(C(F)F)nc12 [I-554]

1: 0.1 to 0.5 nM; 2: 1 to 10 nM; 3: 1 to 10 nM

Would you mind giving Kd for every compound in the list below?
1. CN(c1cc(-c2cnn(C)c2)ccc1Nc1cc(NC(=O)[C@H]2C[C@H]2F)nc2[nH]c(C(F)F)nc12)S(C)(=O)=O [I-236]
2. CN(c1cc(C2CC2)ccc1Nc1cc(NC(=O)C2CC2)nc2[nH]c(C(F)F)nc12)S(C)(=O)=O [I-183]
3. CS(=O)(=O)c1cc([C@H]2CCCCO2)ccc1Nc1cc(NC(=O)C2CC2)nc2[nH]c(C(F)F)nc12 [I-248]
4. Cc1nc2c(Nc3ccccc3[S@+](C)[O-])cc(NC(=O)C3CC3)nc2[nH]1 [I-441]
5. CS(=O)(=O)c1cc(C2COCCO2)ccc1Nc1cc(NC(=O)C2CC2)nc2[nH]c(C(F)F)nc12 (stereo not drawn) [I-588]
6. Cc1nc2c(Nc3ccc(-c4cnn(C)c4)cc3N(C)S(C)(=O)=O)cc(NC(=O)[C@@H]3CC3(F)F)nc2[nH]1 [I-233]

0.1 to 0.5 nM
0.1 to 0.5 nM
< 0.1 nM
1 to 10 nM
0.1 to 0.5 nM
0.1 to 0.5 nM

Parameters: items (list). Returns: Kd for each item.
1. Cc1nc2c(Nc3ccc(-c4cc(C)n(C)n4)cc3S(C)(=O)=O)cc(Nc3cccc(C(F)(F)F)n3)nc2[nH]1 [I-299]
2. COc1cc(C(=O)N2CCCC2)ccc1Nc1cc(NC(=O)C2CC2)nc2[nH]c(C(F)F)nc12 [I-35]
3. CN(c1cc(-c2cn(C)cn2)ccc1Nc1cc(NC(=O)C2CC2)nc2[nH]c(C(F)F)nc12)S(C)(=O)=O [I-64]
4. Cc1nc2c(Nc3ccc([C@H]4CCC(C)(C)CO4)cc3S(C)(=O)=O)cc(NC(=O)C3CC3)nc2[nH]1 [I-551]

0.5 to 1 nM
1 to 10 nM
0.1 to 0.5 nM
0.5 to 1 nM

The reported numbers originate from patent US10647713B2.
